Values were extracted from patent US9353093B2.

So I've got IC50 readings for purified cytoplasmic domain KDR protein (VEGFR2) (Homo sapiens (Human)), take a look.

compound	IC50 [nM]
Cc1ccc(F)c(NC(=O)Nc2cccc(-c3cc4ccccc4n3C(N)=O)c2)c1 [Example 23]	334
Cc1ccc(F)c(NC(=O)Nc2csc(-c3cc4ccccc4n3C(N)=O)c2)c1 [Example 29]	94
Cc1ccc(NC(=O)Nc2ccc(-c3cc4ccccc4n3C(N)=O)cc2)cc1 [Example 11]	23
Cc1ccoc1C(=O)Nc1csc(-c2cc3ccccc3n2C(N)=O)c1 [Example 32]	3180
Cc1cccc(C(=O)Nc2cccc(-c3cc4ccccc4n3C(N)=O)c2)c1 [Example 24]	1170
